# system under test: T1, human PRLR (Biacore antigen) (human, UniProt P16471 25-234, limits assumed)
# T1 construct: The construct injected over captured antibody is not described (a soluble form is likely); also called huPRLR
# T1 sequence: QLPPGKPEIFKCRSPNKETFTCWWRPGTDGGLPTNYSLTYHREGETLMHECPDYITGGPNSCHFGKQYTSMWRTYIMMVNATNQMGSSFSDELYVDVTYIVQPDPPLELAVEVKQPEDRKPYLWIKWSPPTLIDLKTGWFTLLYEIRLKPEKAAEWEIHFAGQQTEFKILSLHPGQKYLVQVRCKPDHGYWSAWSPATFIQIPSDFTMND
# assay notes: SPR simultaneous binding; PRLR held by surface mAb Ab49

| binder | solution mAb binding, % of PRLR binding |
| --- | --- |
| Ab21 (antibody, human IgG1, kappa, V domains shown, humanized from Ab6; G1; also called Ab1 HC.1a and Ab1 LC.2a) VH: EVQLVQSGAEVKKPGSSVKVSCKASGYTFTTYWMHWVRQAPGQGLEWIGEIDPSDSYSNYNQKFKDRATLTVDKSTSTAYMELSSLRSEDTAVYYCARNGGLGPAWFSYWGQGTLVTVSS VL: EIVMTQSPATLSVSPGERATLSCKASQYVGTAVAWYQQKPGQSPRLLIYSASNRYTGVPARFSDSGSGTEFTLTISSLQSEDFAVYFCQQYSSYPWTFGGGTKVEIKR | 0% |
| Ab39 (antibody, human IgG1, kappa, V domains shown, humanized from Ab7; G1; also called Ab4 HC.1a and Ab4 LC.1a) VH: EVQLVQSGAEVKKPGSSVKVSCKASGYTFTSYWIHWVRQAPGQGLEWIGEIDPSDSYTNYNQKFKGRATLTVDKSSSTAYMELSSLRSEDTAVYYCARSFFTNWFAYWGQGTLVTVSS VL: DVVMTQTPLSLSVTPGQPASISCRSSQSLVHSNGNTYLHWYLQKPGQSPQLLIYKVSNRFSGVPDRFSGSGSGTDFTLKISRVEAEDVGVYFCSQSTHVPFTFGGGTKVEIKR | 2% |
| Ab30 (antibody, human IgG1, kappa, V domains shown, humanized from Ab5; G1; also called Ab2 HC.1a and Ab2 LC.1a) VH: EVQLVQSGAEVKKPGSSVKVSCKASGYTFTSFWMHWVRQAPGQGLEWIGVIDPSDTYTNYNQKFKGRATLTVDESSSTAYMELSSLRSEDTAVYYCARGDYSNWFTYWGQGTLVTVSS VL: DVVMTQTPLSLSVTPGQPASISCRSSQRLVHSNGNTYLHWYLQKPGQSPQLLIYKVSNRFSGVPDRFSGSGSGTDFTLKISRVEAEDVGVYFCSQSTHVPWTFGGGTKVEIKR | 6% |
| chAb5 (antibody, human IgG1, kappa, V domains shown, chimeric, murine variable and human G1/kappa constant regions) VH: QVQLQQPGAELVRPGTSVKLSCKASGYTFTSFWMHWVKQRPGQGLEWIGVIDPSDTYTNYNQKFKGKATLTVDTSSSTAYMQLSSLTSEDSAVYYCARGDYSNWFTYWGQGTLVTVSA VL: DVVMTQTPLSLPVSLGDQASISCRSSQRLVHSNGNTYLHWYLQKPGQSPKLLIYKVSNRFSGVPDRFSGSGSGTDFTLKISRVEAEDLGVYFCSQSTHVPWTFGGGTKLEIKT | 7% |
| chAb8 (antibody, human IgG1, kappa, V domains shown, chimeric, murine variable and human G1/kappa constant regions) VH: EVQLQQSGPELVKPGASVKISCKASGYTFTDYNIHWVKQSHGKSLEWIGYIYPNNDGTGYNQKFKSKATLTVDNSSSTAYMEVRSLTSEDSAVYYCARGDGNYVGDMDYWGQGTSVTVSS VL: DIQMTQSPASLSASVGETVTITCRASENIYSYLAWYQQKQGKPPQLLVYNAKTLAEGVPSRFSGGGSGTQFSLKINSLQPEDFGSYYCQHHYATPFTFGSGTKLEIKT | -1% |
